Assay: Stability of the compound in aqueous solution assessed as residual ratio at pH 7 up to 2 weeks by HPLC analysis relative to initial level
Format: physicochemical
Where a SMILES comes first, the peptide text is derived from it. [ ]: non-standard residue; d: D form. Arg(Me) = CNC(=N)NCCC[C@H](N)C(=O)O; d4Pal = N[C@H](Cc1ccncc1)C(=O)O; azaGly = NNC(=O)O
Measurement kind: remaining at 336 h (%)
Please state the figure in %; there is no need to write the unit.

Compound	Uom	remaining at 336 h
CNC(=N)NCCC[C@H](NC(=O)[C@H](CC(C)C)NC(=O)NNC(=O)[C@H](Cc1ccccc1)NC(=O)[C@@H](NC(=O)[C@H](CC(N)=O)NC(=O)[C@@H](Cc1c[nH]c2ccccc12)NC(=O)[C@@H](Cc1ccc(O)cc1)NC(C)=O)[C@@H](C)O)C(=O)N[C@@H](Cc1c[nH]c2ccccc12)C(N)=O (Ac-[dY][dW]NTF[azaGly]L[Arg(Me)]W-NH2)	%	66.4
CNC(=N)NCCC[C@H](NC(=O)[C@H](CC(C)C)NC(=O)NNC(=O)[C@H](Cc1ccccc1)NC(=O)[C@@H](NC(=O)[C@H](CC(N)=O)NC(=O)[C@@H](Cc1ccncc1)NC(=O)[C@@H](Cc1ccc(O)cc1)NC(C)=O)[C@@H](C)O)C(=O)N[C@@H](Cc1c[nH]c2ccccc12)C(N)=O	%	69.8
CNC(=N)NCCC[C@H](NC(=O)[C@H](CC(C)C)NC(=O)NNC(=O)[C@H](Cc1ccccc1)NC(=O)[C@H](CO)NC(=O)[C@H](CC(N)=O)NC(=O)[C@@H](Cc1ccncc1)NC(=O)[C@H](N)Cc1ccc(O)cc1)C(=O)N[C@@H](Cc1ccccc1)C(N)=O [KISS1-305] (H-[dY][d4Pal]NSF[azaGly]L[Arg(Me)]F-NH2)	%	28
CNC(=N)NCCC[C@H](NC(=O)[C@H](CC(C)C)NC(=O)NNC(=O)[C@H](Cc1ccccc1)NC(=O)[C@H](CO)NC(=O)[C@H](CC(N)=O)NC(=O)[C@@H](Cc1c[nH]c2ccccc12)NC(=O)[C@H](N)Cc1ccc(O)cc1)C(=O)N[C@@H](Cc1c[nH]c2ccccc12)C(N)=O	%	28
CNC(=N)NCCC[C@H](NC(=O)[C@H](CC(C)C)NC(=O)NNC(=O)[C@H](Cc1ccccc1)NC(=O)[C@@H](NC(=O)[C@H](CC(N)=O)NC(=O)[C@@H](Cc1c[nH]c2ccccc12)NC(=O)[C@@H](Cc1ccc(O)cc1)NC(C)=O)[C@@H](C)O)C(=O)N[C@@H](Cc1ccccc1)C(N)=O	%	67.6

Then this compound:
I'd like to know its remaining at 336 h. The compound in question is CNC(=N)NCCC[C@H](NC(=O)[C@H](CC(C)C)NC(=O)NNC(=O)[C@H](Cc1ccccc1)NC(=O)[C@@H](NC(=O)[C@H](CC(N)=O)NC(=O)[C@@H](Cc1c[nH]c2ccccc12)NC(=O)[C@H](N)Cc1ccc(O)cc1)[C@@H](C)O)C(=O)N[C@@H](Cc1c[nH]c2ccccc12)C(N)=O
72.8

----------
Assay: Stability of the compound in aqueous solution assessed as residual ratio at pH 7 up to 1 week by HPLC analysis relative to initial level
Format: physicochemical
Where a SMILES comes first, the peptide text is derived from it. [ ]: non-standard residue; d: D form. Arg(Me) = CNC(=N)NCCC[C@H](N)C(=O)O; d4Pal = N[C@H](Cc1ccncc1)C(=O)O; azaGly = NNC(=O)O
Measurement kind: remaining at 168 h (%)
The response must be a number in % with no trailing unit.

Observe how each entry below is paired with its result.
Compound	Uom	remaining at 168 h
CNC(=N)NCCC[C@H](NC(=O)[C@H](CC(C)C)NC(=O)NNC(=O)[C@H](Cc1ccccc1)NC(=O)[C@H](CO)NC(=O)[C@H](CC(N)=O)NC(=O)[C@@H](Cc1c[nH]c2ccccc12)NC(=O)[C@H](N)Cc1ccc(O)cc1)C(=O)N[C@@H](Cc1c[nH]c2ccccc12)C(N)=O	%	56.5
CNC(=N)NCCC[C@H](NC(=O)[C@H](CC(C)C)NC(=O)NNC(=O)[C@H](Cc1ccccc1)NC(=O)[C@@H](NC(=O)[C@H](CC(N)=O)NC(=O)[C@@H](Cc1c[nH]c2ccccc12)NC(=O)[C@@H](Cc1ccc(O)cc1)NC(C)=O)[C@@H](C)O)C(=O)N[C@@H](Cc1ccccc1)C(N)=O	%	84.5
CNC(=N)NCCC[C@H](NC(=O)[C@H](CC(C)C)NC(=O)NNC(=O)[C@H](Cc1ccccc1)NC(=O)[C@@H](NC(=O)[C@H](CC(N)=O)NC(=O)[C@@H](Cc1c[nH]c2ccccc12)NC(=O)[C@@H](Cc1ccc(O)cc1)NC(C)=O)[C@@H](C)O)C(=O)N[C@@H](Cc1c[nH]c2ccccc12)C(N)=O (Ac-[dY][dW]NTF[azaGly]L[Arg(Me)]W-NH2)	%	79.7
CNC(=N)NCCC[C@H](NC(=O)[C@H](CC(C)C)NC(=O)NNC(=O)[C@H](Cc1ccccc1)NC(=O)[C@@H](NC(=O)[C@H](CC(N)=O)NC(=O)[C@@H](Cc1ccncc1)NC(=O)[C@@H](Cc1ccc(O)cc1)NC(C)=O)[C@@H](C)O)C(=O)N[C@@H](Cc1c[nH]c2ccccc12)C(N)=O	%	82.6
CNC(=N)NCCC[C@H](NC(=O)[C@H](CC(C)C)NC(=O)NNC(=O)[C@H](Cc1ccccc1)NC(=O)[C@H](CO)NC(=O)[C@H](CC(N)=O)NC(=O)[C@@H](Cc1ccncc1)NC(=O)[C@H](N)Cc1ccc(O)cc1)C(=O)N[C@@H](Cc1ccccc1)C(N)=O [KISS1-305] (H-[dY][d4Pal]NSF[azaGly]L[Arg(Me)]F-NH2)	%	54.9

Give its remaining at 168 h value. Item: CNC(=N)NCCC[C@H](NC(=O)[C@H](CC(C)C)NC(=O)NNC(=O)[C@H](Cc1ccccc1)NC(=O)[C@@H](NC(=O)[C@H](CC(N)=O)NC(=O)[C@@H](Cc1c[nH]c2ccccc12)NC(=O)[C@H](N)Cc1ccc(O)cc1)[C@@H](C)O)C(=O)N[C@@H](Cc1c[nH]c2ccccc12)C(N)=O
84.9

----------
Target: KiSS-1 receptor (Homo sapiens, UniProt Q969F8)
Sequence (Q969F8 whole entry): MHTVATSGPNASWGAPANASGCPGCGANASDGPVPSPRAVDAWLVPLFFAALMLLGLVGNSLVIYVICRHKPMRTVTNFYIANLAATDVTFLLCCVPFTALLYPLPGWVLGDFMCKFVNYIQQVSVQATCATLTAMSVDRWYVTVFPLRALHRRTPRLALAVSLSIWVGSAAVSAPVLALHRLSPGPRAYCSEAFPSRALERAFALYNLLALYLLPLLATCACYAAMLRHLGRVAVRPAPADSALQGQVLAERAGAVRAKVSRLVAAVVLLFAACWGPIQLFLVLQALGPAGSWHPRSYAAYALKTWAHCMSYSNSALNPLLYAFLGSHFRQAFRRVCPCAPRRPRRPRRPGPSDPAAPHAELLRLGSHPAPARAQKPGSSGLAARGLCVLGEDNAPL
Assay: Displacement of radioligand from human KISS1R transfected in CHO cells
pKi: −log10 of the molar value.
Measurement kind: pKi

Compound	pKi
CNC(=N)NCCC[C@H](NC(=O)[C@H](CC(C)C)NC(=O)NNC(=O)[C@H](Cc1ccccc1)NC(=O)[C@@H](NC(=O)[C@H](CC(N)=O)NC(=O)[C@@H](Cc1c[nH]c2ccccc12)NC(=O)CCc1ccc(O)cc1)[C@@H](C)O)C(=O)N[C@@H](Cc1c[nH]c2ccccc12)C(N)=O	10.41

(A) CNC(=N)NCCC[C@H](NC(=O)[C@H](CC(C)C)NC(=O)NNC(=O)[C@H](Cc1ccccc1)NC(=O)[C@@H](NC(=O)[C@H](CC(N)=O)NC(=O)[C@@H](Cc1ccncc1)NC(=O)[C@H](N)Cc1ccc(O)cc1)C(C)C)C(=O)N[C@@H](Cc1c[nH]c2ccccc12)C(N)=O
(B) CNC(=N)NCCC[C@H](NC(=O)[C@H](CC(C)C)NC(=O)NNC(=O)[C@H](Cc1ccccc1)NC(=O)[C@@H](NC(=O)[C@H](CC(N)=O)NC(=O)[C@@H](Cc1ccncc1)NC(=O)[C@H](N)Cc1ccc(O)cc1)[C@@H](C)O)C(=O)N[C@@H](Cc1c[nH]c2ccccc12)C(N)=O
Which value of pKi is numerically greater: that of A or that of B ? // caller expects the label of the chosen entry
A

----------
Assay: Stability of the compound in aqueous solution (JP1) assessed as residual ratio at pH 1.2 up to 2 weeks by HPLC analysis relative to initial level
Assay type: physicochemical
Where a SMILES comes first, the peptide text is derived from it. [ ]: non-standard residue; d: D form. Arg(Me) = CNC(=N)NCCC[C@H](N)C(=O)O; azaGly = NNC(=O)O
Measurement kind: remaining at 336 h (%)
Give the value, in units of %, as a plain number.

Compound	remaining at 336 h (%)
CNC(=N)NCCC[C@H](NC(=O)[C@H](CC(C)C)NC(=O)NNC(=O)[C@H](Cc1ccccc1)NC(=O)[C@@H](NC(=O)[C@H](CC(N)=O)NC(=O)[C@@H](Cc1c[nH]c2ccccc12)NC(=O)[C@@H](Cc1ccc(O)cc1)NC(C)=O)[C@@H](C)O)C(=O)N[C@@H](Cc1c[nH]c2ccccc12)C(N)=O (Ac-[dY][dW]NTF[azaGly]L[Arg(Me)]W-NH2)	28.8

Field: next compound
May I ask what remaining at 336 h has been recorded for CNC(=N)NCCC[C@H](NC(=O)[C@H](CC(C)C)NC(=O)NNC(=O)[C@H](Cc1ccccc1)NC(=O)[C@@H](NC(=O)[C@H](CC(N)=O)NC(=O)[C@@H](Cc1c[nH]c2ccccc12)NC(=O)[C@H](N)Cc1ccc(O)cc1)[C@@H](C)O)C(=O)N[C@@H](Cc1c[nH]c2ccccc12)C(N)=O ?
39.1

Each recorded value in this set is attributed to ChEMBL document CHEMBL3352485.
